Source: ChEMBL document CHEMBL5365401

molecular target: Aryl hydrocarbon receptor (Homo sapiens); experiment: Agonist activity at AHR in human HepG2-Lucia AhR cells stably transfected with DRE by luciferase reporter assay
pEC50: −log10 of the molar value.
Metric name: pEC50

1. CN1C(=S)NC(=O)/C1=C/c1n[nH]c2ccccc12 ... 5.60
2. COc1cccc(OC)c1C(=O)OCc1cc(=O)n2cc(Br)ccc2n1 ... 5.23
3. CN1C(=O)/C(=C/c2csc3ccccc23)NC1=S ... 5.74

###

Target: UniProtKB P35869
Sequence (P35869 whole entry): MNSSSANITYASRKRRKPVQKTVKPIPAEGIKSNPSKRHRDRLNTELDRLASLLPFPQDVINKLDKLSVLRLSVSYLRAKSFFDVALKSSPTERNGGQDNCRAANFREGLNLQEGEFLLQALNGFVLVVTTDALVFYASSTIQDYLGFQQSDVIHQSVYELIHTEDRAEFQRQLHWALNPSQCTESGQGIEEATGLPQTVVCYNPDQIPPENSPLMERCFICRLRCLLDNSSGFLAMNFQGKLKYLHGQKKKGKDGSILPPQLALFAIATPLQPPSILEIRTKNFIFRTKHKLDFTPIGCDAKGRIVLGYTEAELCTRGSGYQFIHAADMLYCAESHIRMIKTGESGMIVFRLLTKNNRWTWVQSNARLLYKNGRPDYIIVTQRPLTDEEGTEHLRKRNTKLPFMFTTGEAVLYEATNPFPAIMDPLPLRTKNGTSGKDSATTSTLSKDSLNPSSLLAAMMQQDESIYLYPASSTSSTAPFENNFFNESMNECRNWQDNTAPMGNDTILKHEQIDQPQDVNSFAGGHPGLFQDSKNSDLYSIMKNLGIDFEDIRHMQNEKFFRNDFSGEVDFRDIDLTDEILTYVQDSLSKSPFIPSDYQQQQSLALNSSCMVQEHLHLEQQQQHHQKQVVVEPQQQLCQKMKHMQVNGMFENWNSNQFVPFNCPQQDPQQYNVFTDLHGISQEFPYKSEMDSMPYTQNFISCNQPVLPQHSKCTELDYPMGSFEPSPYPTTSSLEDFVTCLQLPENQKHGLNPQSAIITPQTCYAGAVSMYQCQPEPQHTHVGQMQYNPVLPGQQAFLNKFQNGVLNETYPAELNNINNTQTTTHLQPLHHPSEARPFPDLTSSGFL
Test: Agonist activity at AHR in human HepG2-Lucia AhR cells stably transfected with DRE by luciferase reporter assay
Metric name: log10 EC50 (log10 of the value in µM)

1) Cc1cc(-c2nnc3sc(-c4ccccc4Br)nn23)[nH]n1 ... 0.45
2) CN1C(=O)/C(=C/c2c[nH]c3ccccc23)NC1=S ... -0.84
3) CCN1C(=O)/C(=C/c2n[nH]c3ccccc23)NC1=S ... -0.66
4) CC(C)N1C(=O)/C(=C/c2c[nH]c3ccccc23)NC1=S ... 1.00
5) CC#CCN1C(=O)/C(=C/c2n[nH]c3ccccc23)NC1=S ... -0.28
6) CCN1C(=O)/C(=C\c2c[nH]c3ccccc23)NC1=S ... 0.26
7) Cc1ccc([N+](=O)[O-])c2c1NC(c1ccc(Br)cc1)=NO2 ... 0.53
8) CN1C(=O)/C(=C/c2n[nH]c3ccccc23)NC1=S ... -1.31
9) C#CCN1C(=O)/C(=C/c2n[nH]c3ccccc23)NC1=S ... -1.82
